Experiment: Brain Cmax in DIO mice after 10 mg/kg oral dose
Assay type: ADME, organism-based
Parameters: dose 10 mg/kg, route oral
Settings: mouse
Cmax reference
# unit: ng/mL | format: bare number

input_smiles=O=C(NC1CCN(Cc2ccc3c(c2)OCO3)CC1)c1cc(Cl)ccc1NCc1nccs1 metric=Cmax measured=814

Consider now this further molecule.
CC(C)OCCNc1ncc(Cl)cc1C(=O)NC1CCN(Cc2ccc3c(c2)OCO3)CC1 has a reported Cmax of 276

====

Molecular target: UniProtKB Q99705
Sequence (Q99705 whole entry): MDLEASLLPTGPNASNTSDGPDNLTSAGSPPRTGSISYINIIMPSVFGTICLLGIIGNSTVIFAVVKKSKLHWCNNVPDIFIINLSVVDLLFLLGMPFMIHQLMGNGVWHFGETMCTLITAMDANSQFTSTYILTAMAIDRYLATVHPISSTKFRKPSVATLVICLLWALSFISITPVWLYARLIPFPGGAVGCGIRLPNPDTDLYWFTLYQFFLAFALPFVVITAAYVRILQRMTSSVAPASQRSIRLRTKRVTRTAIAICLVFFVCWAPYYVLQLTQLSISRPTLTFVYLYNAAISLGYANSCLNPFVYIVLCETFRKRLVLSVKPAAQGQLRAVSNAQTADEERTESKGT
Assay: Inhibitory concentration against MCH1R IMR32 cells in FLIPR-based assay
Type: cell-based, IMR-32
metric: pIC50
Expect pIC50 as a plain number equal to -log10 of the molar concentration.

Examples with their reported pIC50 follow.
compound=COc1ccc(NCc2cncnc2)c(C(=O)NC2CCN(Cc3ccc4c(c3)OCO4)CC2)c1 measured=7.15
compound=O=C(NC1CCN(Cc2ccc3c(c2)OCO3)CC1)c1cc(Cl)cnc1NCc1nccs1 measured=8.05
compound=Nc1ccc(Cl)cc1C(=O)NC1CCN(Cc2ccc3c(c2)OCO3)CC1 measured=6.70
compound=CC(C)OCCNc1ncc(Cl)cc1C(=O)NC1CCN(Cc2ccc3c(c2)OCO3)CC1 measured=7.70

Recorded pIC50 for COc1ccc(CNc2ncc(Cl)cc2C(=O)NC2CCN(Cc3ccccc3)CC2)cc1 on UniProtKB Q99705 was 7.52

Recorded pIC50 for O=C(NC1CCN(Cc2ccc3c(c2)OCO3)CC1)c1cc(Cl)cnc1NC[C@H]1CCCO1 on UniProtKB Q99705 was 7.70

Recorded pIC50 for CC(=O)c1ccc(CN2CCC(NC(=O)c3cc(Cl)ccc3NCc3c[nH]cn3)CC2)cc1 on UniProtKB Q99705 was 6.62

Recorded pIC50 for COc1ccc(NCc2ccccn2)c(C(=O)NC2CCN(Cc3ccc4c(c3)OCO4)CC2)c1 on UniProtKB Q99705 was 7.15

Recorded pIC50 for CC(C)Nc1ncc(Cl)cc1C(=O)NC1CCN(Cc2ccc3c(c2)OCO3)CC1 on UniProtKB Q99705 was 7.52
